- experimentalSystem: C-RAF (Homo sapiens, UniProt P04049, Y340E/Y341E)
- Construct: His tag (implied by nickel chromatography) (cleaved yes); StrepII tag (cleaved yes); MEK1 substrate from E. coli
- Sequence (P04049 whole entry Y340E/Y341E): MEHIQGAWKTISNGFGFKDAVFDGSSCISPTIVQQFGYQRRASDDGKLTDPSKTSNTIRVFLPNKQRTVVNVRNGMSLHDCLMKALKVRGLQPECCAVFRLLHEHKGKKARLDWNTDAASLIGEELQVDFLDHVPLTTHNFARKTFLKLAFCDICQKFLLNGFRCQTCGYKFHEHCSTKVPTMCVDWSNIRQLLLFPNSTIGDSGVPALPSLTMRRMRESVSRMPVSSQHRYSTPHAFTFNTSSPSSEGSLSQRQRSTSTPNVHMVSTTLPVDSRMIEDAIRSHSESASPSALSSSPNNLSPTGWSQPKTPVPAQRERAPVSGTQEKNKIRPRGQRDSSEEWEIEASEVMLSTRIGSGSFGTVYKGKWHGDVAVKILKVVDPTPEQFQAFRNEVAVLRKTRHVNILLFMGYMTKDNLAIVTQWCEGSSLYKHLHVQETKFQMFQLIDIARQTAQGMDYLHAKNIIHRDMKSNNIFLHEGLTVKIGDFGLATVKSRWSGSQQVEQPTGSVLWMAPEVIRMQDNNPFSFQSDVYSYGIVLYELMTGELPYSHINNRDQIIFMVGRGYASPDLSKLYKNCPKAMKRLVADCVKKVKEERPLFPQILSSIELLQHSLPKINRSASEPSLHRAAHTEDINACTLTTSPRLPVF
- Sequence (P63104 whole entry partner): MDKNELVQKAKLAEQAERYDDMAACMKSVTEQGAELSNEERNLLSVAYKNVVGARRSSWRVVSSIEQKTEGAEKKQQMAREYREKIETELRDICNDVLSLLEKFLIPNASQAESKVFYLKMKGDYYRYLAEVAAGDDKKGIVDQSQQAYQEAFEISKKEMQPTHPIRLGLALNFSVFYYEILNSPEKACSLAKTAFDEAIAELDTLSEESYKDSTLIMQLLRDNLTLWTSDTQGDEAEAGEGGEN
- protocolDetails: In vitro Raf activity determination (Alpha Screen, biotinylated kinase-dead MEK1 substrate), C-Raf
- conditionContext: c-Raf approximately 4 nM; ATP 1 μM; pre-incubation 60 minutes; reaction 1 hour at room temperature
valueType: IC50 (nM)

A = Cc1ccc(NC(=O)c2ccnc(C(F)F)c2)cc1-c1cnc(-c2cnn(C)c2)c(C#N)c1
B = Cc1ncc(NC(=O)c2cccc(C(F)(F)F)c2)cc1-c1cnc(N2CCS(=O)(=O)CC2)c(C#N)c1
Ask | Determine, for A and B , which has the greater value of IC50. Return value: the label identifying the chosen record.
Reply | B

a = Cc1ccc(NC(=O)c2ccnc(C(F)(F)F)c2)cc1-c1cnc(N2CC(C)(O)C2)c(C#N)c1
b = Cc1ncc(NC(=O)c2cc(C(C)C)on2)cc1-c1cnc(N(C)C)c(C#N)c1
c = Cc1ncc(NC(=O)c2ccnc(C(F)(F)F)c2)cc1-c1cnc(Oc2ccccn2)c(C#N)c1
d = Cc1ccc(NC(=O)c2ccnc(C(F)F)c2)cc1-c1cnc(NC2CCOCC2)c(C#N)c1
e = Cc1ccc(NC(=O)c2ccnc(C3CC3)c2)cc1-c1cnc(N2CCOCC2)c(C#N)c1
Ask | Arrange by IC50, high to low. List the labels in the requested order.
Reply | c, b, a, d, e
(c: 9.28 nM, b: 0.636 nM, a: 0.32 nM, d: 0.154 nM, e: 0.0395 nM)

###

- experimentalSystem: C-RAF (Homo sapiens, UniProt P04049, Y340E/Y341E)
- Construct: His tag (implied by nickel chromatography) (cleaved yes); StrepII tag (cleaved yes); MEK1 substrate from E. coli
- protocolDetails: In vitro Raf activity determination (Alpha Screen, biotinylated kinase-dead MEK1 substrate), C-Raf
- conditionContext: c-Raf approximately 4 nM; ATP 1 μM; pre-incubation 60 minutes; reaction 1 hour at room temperature
- Text: CRAF cDNA was subcloned as full length protein, with Y340E and Y341E activating mutations, into a baculovirus expression vector for Sf9 insect cell expression. h14-3-3 zeta cDNA was subcloned into a baculovirus expression vector for SF9 insect cell expression. Sf9 cells co-expressing both proteins were lysed and subjected to immobilized nickel chromatography and eluted with Imidazole. A second column (StrepII binding column) was used and eluted with desthiobiotin. […]
pIC50: −log10 of the molar value.
valueType: pIC50

compound: Cc1ccc(NC(=O)c2cccc(C(F)(F)F)c2)cc1-c1cnc(-n2ccc(=O)cc2)c(C#N)c1 [Example 118]
experimentalSystem: C-RAF (Homo sapiens, UniProt P04049, Y340E/Y341E)
experimentalResult: 9.11
//
compound: Cc1ncc(NC(=O)c2cccc(C(F)(F)F)c2)cc1-c1cnc(N)c(C#N)c1 [Example 4]
experimentalSystem: C-RAF (Homo sapiens, UniProt P04049, Y340E/Y341E)
experimentalResult: 9.68
//
compound: Cc1ccc(NC(=O)c2ccnc(C(C)(C)C#N)c2)cc1-c1cnc(Cl)c(C#N)c1 [Example 32]
experimentalSystem: C-RAF (Homo sapiens, UniProt P04049, Y340E/Y341E)
experimentalResult: 8.99
//
compound: Cc1ccc(NC(=O)c2cc(C(F)(F)F)ccn2)cc1-c1cnc(N2CCOCC2)c(C#N)c1 [Example 222]
experimentalSystem: C-RAF (Homo sapiens, UniProt P04049, Y340E/Y341E)
experimentalResult: 9.66
//
compound: Cc1ncc(NC(=O)c2ccnc(C(C)(C)C#N)c2)cc1-c1cnc(-c2ccncc2)c(C#N)c1 [Example 107]
experimentalSystem: C-RAF (Homo sapiens, UniProt P04049, Y340E/Y341E)
experimentalResult: 8.67

I = Cc1ncc(NC(=O)c2ccnc(C(C)(C)C#N)c2)cc1-c1cnc(N2CCC2)c(C#N)c1 [Example 76]
II = CCCNc1ncc(-c2cc(NC(=O)c3ccnc(C(F)(F)F)c3)ccc2C)cc1C#N [Example 40]
III = Cc1ncc(NC(=O)c2ccnc(C(C)(C)O)c2)cc1-c1cnc(C2CCOCC2)c(C#N)c1 [Example 167]
Ask | Arrange by pIC50, high to low. List the labels in the requested order.
Reply | II, I, III
(II: 9.63, I: 8.81, III: 8.16)

###

- experimentalSystem: C-RAF (Homo sapiens, UniProt P04049, Y340E/Y341E)
- Construct: His tag (implied by nickel chromatography) (cleaved yes); StrepII tag (cleaved yes); MEK1 substrate from E. coli
- protocolDetails: In vitro Raf activity determination (Alpha Screen, biotinylated kinase-dead MEK1 substrate), C-Raf
- conditionContext: c-Raf approximately 4 nM; ATP 1 μM; pre-incubation 60 minutes; reaction 1 hour at room temperature
- Text: CRAF cDNA was subcloned as full length protein, with Y340E and Y341E activating mutations, into a baculovirus expression vector for Sf9 insect cell expression. h14-3-3 zeta cDNA was subcloned into a baculovirus expression vector for SF9 insect cell expression. Sf9 cells co-expressing both proteins were lysed and subjected to immobilized nickel chromatography and eluted with Imidazole. A second column (StrepII binding column) was used and eluted with desthiobiotin. […]
valueType: IC50 (pM)

smilesEntry: Cc1ccc(NC(=O)c2ccnc(C(C)C)c2)cc1-c1cnc(N2CCNCC2)c(C#N)c1
experimentalResult: 158

P = Cc1ccc(NC(=O)c2ccnc(C(C)(C)C#N)c2)cc1-c1cnc(N2CC(C)(O)C2)c(C#N)c1
Q = Cc1ccc(NC(=O)c2cccc(S(C)(=O)=O)c2)cc1-c1cnc(N2CCOCC2)c(C#N)c1
Ask | // returns P or Q , whichever has the lower IC50 Return value: the label identifying the chosen record.
Reply | Q

I = Cc1ccc(NC(=O)c2cnnc(C(C)(C)C#N)c2)cc1-c1cnc(N2CCNCC2)c(C#N)c1
II = Cc1ncc(NC(=O)c2ccnc(C(F)(F)F)c2)cc1-c1cnc(-c2cn(C)nc2C)c(C#N)c1
Ask | Determine, for I and II , which has the greater value of IC50. Return value: the label identifying the chosen record.
Reply | I

A = Cc1ncc(NC(=O)c2ccnc(C(C)(F)F)c2)cc1-c1cnc(N2CC(C)(O)C2)c(C#N)c1
B = Cc1ccc(C(=O)Nc2cccc(C(F)(F)F)c2)cc1-c1cnc(N)c(C#N)c1
Ask | Determine, for A and B , which has the greater value of IC50. Return value: the label identifying the chosen record.
Reply | A

###

- experimentalSystem: C-RAF (Homo sapiens, UniProt P04049, Y340E/Y341E)
- Construct: His tag (implied by nickel chromatography) (cleaved yes); StrepII tag (cleaved yes); MEK1 substrate from E. coli
- protocolDetails: In vitro Raf activity determination (Alpha Screen, biotinylated kinase-dead MEK1 substrate), C-Raf
- conditionContext: c-Raf approximately 4 nM; ATP 1 μM; pre-incubation 60 minutes; reaction 1 hour at room temperature
valueType: IC50 (pM)

compound: Cc1ncc(NC(=O)c2ccnc(C(C)(C)C#N)c2)cc1-c1cnc(NC2CCOCC2)c(C#N)c1 [Example 72]
unitsSymbol: pM
IC50: 1530

P = Cc1ccc(NC(=O)c2ccnc(C(F)(F)F)c2)cc1-c1cnc(NC2CCOCC2)c(C#N)c1 [Example 61]
Q = Cc1ncc(NC(=O)c2cc(C(F)(F)F)ccn2)cc1-c1cnc(N2CCOCC2)c(C#N)c1 [Example 223]
R = Cc1ncc(NC(=O)c2cnnc(C(C)(C)C#N)c2)cc1-c1cnc(N2CC(C)(O)C2)c(C#N)c1 [Example 186]
Ask | Sort entries by IC50 from minimum to maximum value. List the labels in the requested order.
Reply | P, Q, R
(P: 194 pM, Q: 304 pM, R: 10200 pM)

###

- experimentalSystem: b-Raf (V600E) (Homo sapiens, UniProt P15056, V600E)
- Sequence (P15056 whole entry V600E): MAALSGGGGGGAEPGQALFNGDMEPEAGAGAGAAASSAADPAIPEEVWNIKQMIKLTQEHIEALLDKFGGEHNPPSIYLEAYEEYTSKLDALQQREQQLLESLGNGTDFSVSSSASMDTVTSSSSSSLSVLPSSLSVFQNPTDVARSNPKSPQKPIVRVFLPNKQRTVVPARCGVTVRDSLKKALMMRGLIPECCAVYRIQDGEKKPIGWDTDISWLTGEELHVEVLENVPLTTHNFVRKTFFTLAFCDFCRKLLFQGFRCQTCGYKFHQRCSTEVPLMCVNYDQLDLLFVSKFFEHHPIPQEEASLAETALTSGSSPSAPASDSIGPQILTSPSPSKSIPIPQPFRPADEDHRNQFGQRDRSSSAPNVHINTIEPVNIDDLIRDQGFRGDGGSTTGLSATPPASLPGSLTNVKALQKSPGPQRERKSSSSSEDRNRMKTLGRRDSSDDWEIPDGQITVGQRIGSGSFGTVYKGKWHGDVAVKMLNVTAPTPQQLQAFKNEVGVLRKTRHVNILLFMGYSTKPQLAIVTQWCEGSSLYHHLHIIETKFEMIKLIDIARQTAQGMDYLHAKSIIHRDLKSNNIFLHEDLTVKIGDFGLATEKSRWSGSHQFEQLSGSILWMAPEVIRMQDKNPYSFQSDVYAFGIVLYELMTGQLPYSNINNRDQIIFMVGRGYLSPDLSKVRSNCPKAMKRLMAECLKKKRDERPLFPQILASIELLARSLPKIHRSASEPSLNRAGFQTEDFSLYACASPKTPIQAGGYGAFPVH
- protocolDetails: In vitro Raf activity determination (Alpha Screen, biotinylated kinase-dead MEK1 substrate), B-Raf
- conditionContext: b-Raf (V600E) approximately 4 pM; ATP 10 μM; pre-incubation 60 minutes; reaction 3 hours at room temperature
valueType: IC50 (nM)

// worked examples, IC50 included
molecule: Cc1ncc(NC(=O)c2cc(C(C)(C)O)ccn2)cc1-c1cnc(N2CCOCC2)c(C#N)c1 [Example 234]
IC50 (nM): 3.87
--
molecule: COCCNc1ncc(-c2cc(NC(=O)c3ccnc(C(C)(C)C#N)c3)ccc2C)cc1C#N [Example 176]
IC50 (nM): 1.58
--
molecule: Cc1ccc(NC(=O)c2ccnc(C(C)(C)C#N)c2)cc1-c1cnc(C2CCOCC2)c(C#N)c1 [Example 137]
IC50 (nM): 1.98
--
molecule: Cc1ncc(NC(=O)c2ccnc(C(C)(C)C#N)c2)cc1-c1cnc(N)c(C#N)c1 [Example 38]
IC50 (nM): 16.4
--
molecule: Cc1ncc(NC(=O)c2ccnc(C(C)(C)C#N)c2)cc1-c1cnc(-c2ccn(C)n2)c(C#N)c1 [Example 109]
IC50 (nM): 20

P = Cc1ncc(NC(=O)c2ccnc(C(C)(C)C#N)c2)cc1-c1cnc(OC2COC2)c(C#N)c1 [Example 94]
Q = Cc1ccc(NC(=O)c2cccc(C(F)(F)F)c2)cc1-c1cnc(NC2CC2)c(C#N)c1 [Example 17]
R = Cc1ccc(NC(=O)c2cccc(S(C)(=O)=O)c2)cc1-c1cnc(N2CCOCC2)c(C#N)c1 [Example 157]
Ask | Sort entries by IC50 from minimum to maximum value. List the labels in the requested order.
Reply | R, Q, P
(R: 0.304 nM, Q: 2.28 nM, P: 23.6 nM)
